// provenance: the supplement of paper PMC10567573

- assay_name: protein stability index of a GFP-peptide fusion (GPS, HEK-293T) (PSI 1-6); higher = more stable;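 note: 24-mer peptide tiles fused after GFP, lentivirally expressed, FACS-sorted into six equal bins by GFP/DsRed ratio, decoded by Illumina sequencing, PSI is the read-weighted mean bin number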
- test_parameters: treatment: DMSO; c terminus: a fixed tail appended
So basically: protein stability index at 4 or higher? That is MET. Lower than 4? That is NOT MET.

# count of solved cases: 10
ALVYLPGVIAAIVQLHNGTKYKKF [STEAP1] | NOT MET
MMCVAERTYKQRFLFAKLFSHITS [PHTF1] | NOT MET
SATSKLIHPDEDISLEERRAQLPK [ZNF207] | MET
IEPLVPEEKMETKTESSGIETEPT [EPB41L3] | MET
MNELQHDLDVVSDALAKVSRKPSI [TPH1] | MET
ANPQYTVYSQASTMSIPVAMETDG [PPP2R5C] | MET
ILSFTVIMVGFILYCSTPTRTAEP [SLC35F2] | NOT MET
RGCGGTDIELDAARGDAVCTACGS [BRF1] | MET
DPEVFKEMMRFIYTGRAPNLDKMA [SPOPL] | NOT MET
LHHKRLAKECMLQEENKSLREENK [CBY2] | MET

Continue with the next sequence.
// inclusive: protein stability index at least 4? input: GHSLKNLEHRLNEMERTQAQLRDA [RASAL3]
MET

* * *

The reader will find reported protein stability index values listed item by item below.
- assay_name: protein stability index of a GFP-peptide fusion (GPS, HEK-293T) (PSI 1-6); higher = more stable
- test_parameters: treatment: DMSO; c terminus: a fixed tail appended
Reply with the value as a number alone.

SSFSDPFFVVETLCIIWFSFELLV [KCNA3] | 3.06

Please report the recorded protein stability index for GGGGLHSVGTYIIDLLTFLTGQKA [GFOD1] .
2.1

Can you check EREMAEIRDQMQQQLNDYEQLLDV [LMNB1] next?
5.15

Can you check TKLPENQAIQMRLVDVACKHLTDT [INTS4] next?
3.41

Can you check LKDHFSHLLGIPHSVLQIRYSGKI [IQUB] next?
2.19

Can you check VTGLMEATQMMVDIDGDVLVFLEL [RHOBTB2] next?
3.31

* * *

- assay_name: protein stability index of a GFP-peptide fusion (GPS, HEK-293T) (PSI 1-6); higher = more stable
- test_parameters: treatment: DMSO; c terminus: a fixed tail appended
observable: protein stability index
Reply with the value as a number alone.

Consider the following illustrative entries.
DLKLGNFFINEAMELKVGDFGLAA [PLK2] | 2.14
LTGVLCSYPNPNEDKCPGNYTNPL [TMEM192] | 3.26

Please report the recorded protein stability index for PKQLRLINQPLPDLKNVKSKIGST [MAP2] .
3.9

Can you check ATIVFATDFYLIFNDVAKFLKQGD [CMTM3] next?
2.9

Can you check QGVCYLVLCEAAFPKKLAFAYLED [SEC22B] next?
3.26

Can you check KKQPWWRKLFGQESGPSAEKYSVA [FUNDC2] next?
3.1

Can you check IWTAHYDPGHCFAESRELPVRCAG [ALG2] next?
2.38

* * *

The reader will find reported protein stability index values listed item by item below.
- assay_name: protein stability index of a GFP-peptide fusion (GPS, HEK-293T) (PSI 1-6); higher = more stable
- test_parameters: treatment: DMSO; c terminus: a fixed tail appended
Reply with the value as a number alone.

RPLGIRAGPNGTLFVADAYKGLFE [APMAP] | 2.66
TQESTFQELCEGLLEESDGEGEPG [NOP53] | 5.59
NEARHNFGIVEIDGMLYILGGEDG [GAN] | 2.63
RFPESHLPIQTPGAFLRTCLLSSN [TLE6] | 2.71
WVFHHYVSTFLSGVMLTWPDGLMY [TMEM120A] | 3.14

Please report the recorded protein stability index for SSMLTGILWDTLLRLCAWGLASWP [POMT2] .
3.12

Can you check DDDFSIHAAHVVCRELGYVEAKSW [LOXL2] next?
2.72

* * *

- assay_name: protein stability index of a GFP-peptide fusion (GPS, HEK-293T) (PSI 1-6); higher = more stable
- test_parameters: treatment: MLN4924 1 uM, 8 h; c terminus: a fixed tail appended
Note to self: class = bucket of protein stability index, per 1 (below 3), 2 (3 to below 5), 3 (5 or more)

Band assignment needed for SPWNFLGDELYEQSDEEQDSVKVA [CLPTM1] please.
3

Can you check DWVSDWSSRPENIPPKEFHFRHPK [BNIP3L] next?
2

Can you check TSILSRLPPEALTAPSGGQWGAEP [RNF208] next?
2

Can you check EHIADALRAIDFGTDEEEEEFIEE [TRIM63] next?
3

Can you check FGELRLGKNLYTNEYVAIKLEPIK [CSNK1G1] next?
1

Can you check VKCNGALINTSDTVQHGAVYSLEP [SDE2] next?
2

Can you check FDHPIPRVFQNRFSTQYRCFSVSM [UFD1] next?
1

Can you check SGRNGEVSLDISPDLPFQIKPSEN [PCDHGC5] next?
2

Can you check RGLRGEPGPQGSAGQRGEPGPKGD [EMID1] next?
3

Can you check FLLKFLLVGDRDVGKSEILESLQD [RAB40A] next?
1

Can you check EEENPGGCEDEYLVNPTCQVLVKD [ZER1] next?
3

Can you check EEDLVLTCEDDEDEELGGSSRVPV [ZBTB22] next?
3

* * *

The reader will find reported protein stability index values listed item by item below.
- assay_name: protein stability index of a GFP-peptide fusion (GPS, HEK-293T) (PSI 1-6); higher = more stable
- test_parameters: treatment: MLN4924 1 uM, 8 h; c terminus: a fixed tail appended
Reply with the value as a number alone.

Consider the following illustrative entries.
AIEHFQPNADLLFSDPSQSDPETK [FCHO1] | 5.44
ILLSWTPPRSDTIANYELVYKDGE [PTPRD] | 2.23
NSLRGVILDIHFLSQADFLVCTFS [FUT8] | 2.79

Please report the recorded protein stability index for RGCGGTDIELDAARGDAVCTACGS [BRF1] .
4.75

Can you check EETHLEETTESQQNGEEGTSTPED [SMARCE1] next?
5.63

Can you check VAVQEQEIARREKELEARVRKPAE [FLOT1] next?
5.31

Can you check KLLKQMRILWKKIQENQRNLYEEG [TRIM43] next?
1.85

Can you check LMDEGASSEKKRQSSADGSQPPKK [RBBP5] next?
5.53

Can you check KECGKVFSQSAGLIQHQRIHKGEK [ZSCAN9] next?
4.48

Can you check STWALYGRAVDQDKVLRFAQQIRL [MYORG] next?
2.25

Can you check MRKGNTMQQFLQKALEILRKDFSE [FAM50A] next?
2.89

Can you check FLGLGAPNCLSMGSRCLKTFEVPE [ZBED1] next?
2.06

Can you check ADPLDTPPDSKEGIVVESNHDSHM [PDZK1] next?
5.36

* * *

- assay_name: protein stability index of a GFP-peptide fusion (GPS, HEK-293T) (PSI 1-6); higher = more stable
- test_parameters: treatment: MLN4924 1 uM, 8 h; c terminus: a fixed tail appended
So basically: protein stability index at 3 or higher? That is condition met. Lower than 3? That is condition not met.

# count of solved cases: 6
ENHPDVFSDSSMDHFQKFLPTVGG [MYOZ1] | condition met
SCPGSSYRTVVRPTYKVMYKIVTA [EMID1] | condition not met
VAFVCAFSEALAEGAVKMGMPSSL [PYCR3] | condition not met
GEPRKLLTQDWVQENYLEYRQVPG [MAGEA10] | condition met
RTTVFQYPVGWPPVQELPPSLRAP [ZMAT5] | condition not met
NTLQTYIRCRHPPPGSHLLYAKMI [VDR] | condition not met

// inclusive: protein stability index at least 3? input: QLIEEGYVGEPLVCEVQVHGGSLL [GFOD1]
condition not met

Can you check SSEHVTESVADLLALEEPVDYKQS [SLC6A17] next?
condition met

Can you check TGEFLKLPFERLAFVLSSNSLKHC [KLHL13] next?
condition not met

Can you check FTQPQQTSFALERNLRTQQEIEDK [C8orf76] next?
condition met

Can you check PAYGMSPSLSTITSTSSSITSSIP [DVL3] next?
condition met

Can you check SWWADLRALARNLIFGLITCLTGV [SPNS1] next?
condition met

* * *

- assay_name: protein stability index of a GFP-peptide fusion (GPS, HEK-293T) (PSI 1-6); higher = more stable
- test_parameters: treatment: MLN4924 1 uM, 8 h; c terminus: a fixed tail appended
So basically: protein stability index at 3 or higher? That is fulfilled. Lower than 3? That is not fulfilled.

# count of solved cases: 5
DAVQTSLMDEGASSEKKRQSSADG [RBBP5] | fulfilled
SSSDLVMRARDSVYHIECFRCSVC [ISL2] | not fulfilled
ESKDYLSLYLLLVSCPKSEVRAKF [SPOPL] | not fulfilled
WGCSCCPPETKHQALSGTPKKGPA [TSPAN10] | fulfilled
SGGGRDSSSSILRWLPEKRANPCL [ELOA2] | fulfilled

// inclusive: protein stability index at least 3? input: DVAVHMPCLGHTFNAGIQQAFQLP [ZBED1]
not fulfilled

Can you check RLVLCMELANGKPQTRSGPECGLA [ADAMTSL2] next?
not fulfilled

Can you check DHEDFTGSSSLGFTSSPSPFSSSS [FCHO1] next?
fulfilled
